# SYSTEM_NAME: GST-Nv-NF-kB (Ser allele) (Nematostella vectensis, UniProt A7UNT2 2-411)
# Sequence: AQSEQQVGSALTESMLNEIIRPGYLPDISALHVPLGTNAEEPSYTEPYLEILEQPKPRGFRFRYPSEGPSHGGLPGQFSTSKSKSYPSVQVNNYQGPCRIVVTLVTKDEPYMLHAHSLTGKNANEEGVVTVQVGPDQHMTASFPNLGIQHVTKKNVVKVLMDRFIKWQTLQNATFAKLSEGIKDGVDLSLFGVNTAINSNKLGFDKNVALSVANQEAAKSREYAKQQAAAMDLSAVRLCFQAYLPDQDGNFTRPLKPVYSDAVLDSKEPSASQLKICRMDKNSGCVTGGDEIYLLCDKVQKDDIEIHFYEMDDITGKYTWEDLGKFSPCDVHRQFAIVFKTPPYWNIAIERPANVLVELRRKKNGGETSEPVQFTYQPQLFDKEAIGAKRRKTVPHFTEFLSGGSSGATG
# METHOD_NOTES: protein-binding microarray (PBM); PBM: ~300 nM protein, 6 mM HEPES pH 7.8, 80 mM KCl, 0.5 mM EDTA, 0.5 mM EGTA, 6% glycerol, 35 ng/ul poly-dIdC, 1% milk, 1 h, room temperature; high values mean tight binding
# STUDY_CONDITIONS: dsDNA, one strand shown
RECORDED_METRIC: binding signal (z-score)
Your answer should be a plain number; it is taken to be in z-score.

Worked cases, answers included:
SEQUENCE: CCGATTAACATCAGGTATTTCCATGATGTTAATCGGGTCTTGATTCGCTTGACGCTGCTG
RECORDED_METRIC: binding signal
RESULT_NUMBER: 1.6

SEQUENCE: CCGATTAACATCACGTAAATCCCTGATGTTAATCGGGTCTTGATTCGCTTGACGCTGCTG
RECORDED_METRIC: binding signal
RESULT_NUMBER: 2.27

I would be grateful if you could share the reported binding signal for `CCGATTAACATCAGGAGACTCCCTGATGTTAATCGGGTCTTGATTCGCTTGACGCTGCTG` .
1.61

Would you kindly repeat that for `CCGATTAACATCAGGAGAACCCCTGATGTTAATCGGGTCTTGATTCGCTTGACGCTGCTG` ?
1.24

Would you kindly repeat that for `CCGATTAACATCAGGGAAAACACTGATGTTAATCGGGTCTTGATTCGCTTGACGCTGCTG` ?
5.79

====

Examples of sequences with documented binding signal follow.
# SYSTEM_NAME: GST-Nv-NF-kB (Ser allele) (Nematostella vectensis, UniProt A7UNT2 2-411)
# Sequence: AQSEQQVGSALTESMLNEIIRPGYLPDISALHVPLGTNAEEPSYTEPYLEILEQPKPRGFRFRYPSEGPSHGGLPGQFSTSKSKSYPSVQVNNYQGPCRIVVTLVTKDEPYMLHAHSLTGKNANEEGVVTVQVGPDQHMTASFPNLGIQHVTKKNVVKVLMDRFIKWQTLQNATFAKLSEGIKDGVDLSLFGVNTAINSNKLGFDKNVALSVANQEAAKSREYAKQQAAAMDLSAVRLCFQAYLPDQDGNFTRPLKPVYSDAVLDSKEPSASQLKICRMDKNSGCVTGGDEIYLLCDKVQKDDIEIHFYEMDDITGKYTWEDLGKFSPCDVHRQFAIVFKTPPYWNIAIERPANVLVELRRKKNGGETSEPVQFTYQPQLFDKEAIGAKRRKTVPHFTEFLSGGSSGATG
# METHOD_NOTES: protein-binding microarray (PBM); PBM: ~300 nM protein, 6 mM HEPES pH 7.8, 80 mM KCl, 0.5 mM EDTA, 0.5 mM EGTA, 6% glycerol, 35 ng/ul poly-dIdC, 1% milk, 1 h, room temperature; high values mean tight binding
# STUDY_CONDITIONS: dsDNA, one strand shown
Reply with the number and its unit after it.

Worked cases, answers included:
SEQUENCE: CCGATTAACATCAAGGGATTTTCTGATGTTAATCGGGTCTTGATTCGCTTGACGCTGCTG
RECORDED_METRIC: binding signal
RESULT: 5.14 z-score
--
SEQUENCE: CCGATTAACATCAGGGGACTTCATGATGTTAATCGGGTCTTGATTCGCTTGACGCTGCTG
RECORDED_METRIC: binding signal
RESULT: 6.12 z-score
--
SEQUENCE: CCGATTAACATCAGGAGTCCCCATGATGTTAATCGGGTCTTGATTCGCTTGACGCTGCTG
RECORDED_METRIC: binding signal
RESULT: 4.11 z-score
--
SEQUENCE: CCGATTAACATCACGGGACTCCCTGATGTTAATCGGGTCTTGATTCGCTTGACGCTGCTG
RECORDED_METRIC: binding signal
RESULT: 3.64 z-score
--
SEQUENCE: CCGATTAACATCAGGAATACCCCTGATGTTAATCGGGTCTTGATTCGCTTGACGCTGCTG
RECORDED_METRIC: binding signal
RESULT: 4.15 z-score
--
SEQUENCE: CCGATTAACATCAGGAGTACCCCTGATGTTAATCGGGTCTTGATTCGCTTGACGCTGCTG
RECORDED_METRIC: binding signal
RESULT: 2.31 z-score

I would be grateful if you could share the reported binding signal for `CCGATTAACATCATTATGGGAAATGATGTTAATCGGGTCTTGATTCGCTTGACGCTGCTG` .
2.21 z-score

Would you kindly repeat that for `CCGATTAACATCATGTTGGGAAATGATGTTAATCGGGTCTTGATTCGCTTGACGCTGCTG` ?
2.11 z-score

Would you kindly repeat that for `CCGATTAACATCAGGGGAGTGTATGATGTTAATCGGGTCTTGATTCGCTTGACGCTGCTG` ?
4.51 z-score

Would you kindly repeat that for `CCGATTAACATCATTGGGAAAAATGATGTTAATCGGGTCTTGATTCGCTTGACGCTGCTG` ?
3.58 z-score

====

# SYSTEM_NAME: GST-Hu-p50 (Homo sapiens, UniProt P19838 7-356)
# Sequence (P19838 7-356): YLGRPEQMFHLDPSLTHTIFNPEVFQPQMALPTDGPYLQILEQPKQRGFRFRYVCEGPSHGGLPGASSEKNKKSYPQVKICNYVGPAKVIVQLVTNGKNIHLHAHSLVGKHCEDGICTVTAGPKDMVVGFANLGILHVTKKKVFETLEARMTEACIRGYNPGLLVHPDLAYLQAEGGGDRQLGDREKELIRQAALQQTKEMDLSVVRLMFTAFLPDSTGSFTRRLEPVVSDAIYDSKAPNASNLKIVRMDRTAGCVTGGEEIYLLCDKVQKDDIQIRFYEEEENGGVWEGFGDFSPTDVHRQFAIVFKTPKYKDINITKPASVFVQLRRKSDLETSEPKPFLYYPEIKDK
# METHOD_NOTES: protein-binding microarray (PBM); PBM: ~300 nM protein, 6 mM HEPES pH 7.8, 80 mM KCl, 0.5 mM EDTA, 0.5 mM EGTA, 6% glycerol, 35 ng/ul poly-dIdC, 1% milk, 1 h, room temperature; high values mean tight binding
# STUDY_CONDITIONS: dsDNA, one strand shown
Examples of sequences with documented binding signal follow.

Worked cases, answers included:
SEQUENCE: CCGATTAACATCAGGGGGTAGAATGATGTTAATCGGGTCTTGATTCGCTTGACGCTGCTG
binding signal: 3.9 z-score
--
SEQUENCE: CCGATTAACATCAACCTTTCCCCTGATGTTAATCGGGTCTTGATTCGCTTGACGCTGCTG
binding signal: 4.06 z-score
--
SEQUENCE: CCGATTAACATCAGGGGGCATTATGATGTTAATCGGGTCTTGATTCGCTTGACGCTGCTG
binding signal: 4.09 z-score
--
SEQUENCE: CCGATTAACATCAAGGGGGTGACTGATGTTAATCGGGTCTTGATTCGCTTGACGCTGCTG
binding signal: 3.9 z-score
--
SEQUENCE: CCGATTAACATCAGGGGAACATATGATGTTAATCGGGTCTTGATTCGCTTGACGCTGCTG
binding signal: 4.06 z-score

Please find the next sequence below.
I would be grateful if you could share the reported binding signal for `CCGATTAACATCAGACCTTCCCCTGATGTTAATCGGGTCTTGATTCGCTTGACGCTGCTG` .
4.03 z-score

====

# SYSTEM_NAME: GST-Hu-p50 (Homo sapiens, UniProt P19838 7-356)
# METHOD_NOTES: protein-binding microarray (PBM); PBM: ~300 nM protein, 6 mM HEPES pH 7.8, 80 mM KCl, 0.5 mM EDTA, 0.5 mM EGTA, 6% glycerol, 35 ng/ul poly-dIdC, 1% milk, 1 h, room temperature; Ap Aiptasia and Nv Nematostella (sea anemones) / Co Capsaspora / Aq Amphimedon (sponge) / Dm Drosophila / Hu human; RHD is the Rel homology domain; high values mean tight binding
# STUDY_CONDITIONS: dsDNA, one strand shown
Decide by binding signal: equal to or exceeding 4 z-score means Condition met, less means Condition not met.

SEQUENCE: CCGATTAACATCAAATCTTTCCCTGATGTTAATCGGGTCTTGATTCGCTTGACGCTGCTG
SYSTEM_NAME: GST-Hu-p50 (Homo sapiens, UniProt P19838 7-356)
LABEL_VALUE: Condition not met
--
SEQUENCE: CCGATTAACATCAAGGGGGTCCCTGATGTTAATCGGGTCTTGATTCGCTTGACGCTGCTG
SYSTEM_NAME: GST-Hu-p50 (Homo sapiens, UniProt P19838 7-356)
LABEL_VALUE: Condition not met
--
SEQUENCE: CCGATTAACATCATTTCCCTTGATGATGTTAATCGGGTCTTGATTCGCTTGACGCTGCTG
SYSTEM_NAME: GST-Hu-p50 (Homo sapiens, UniProt P19838 7-356)
LABEL_VALUE: Condition not met

Please check the record `CCGATTAACATCAAGGGAGTACCTGATGTTAATCGGGTCTTGATTCGCTTGACGCTGCTG` and state if its binding signal is at or above 4 z-score.
Condition not met

Would you kindly repeat that for `CCGATTAACATCACGGAAGTCCCTGATGTTAATCGGGTCTTGATTCGCTTGACGCTGCTG` ?
Condition met

Would you kindly repeat that for `CCGATTAACATCAGGGAAAGTAATGATGTTAATCGGGTCTTGATTCGCTTGACGCTGCTG` ?
Condition not met
